Reference source for all entries: patent US20220168301A1

# TEST SUMMARY: Plasma pharmacokinetics of single escalating doses in patients with symptomatic nOH associated with Parkinson's disease
# Format: in vivo, human
# PARTICULARS: human, plasma, oral; 20 mg single dose
MEASURED QUANTITY: Cmax (ng/mL)
Form entry: value (ng/mL) — number only.

Query: # query: Cmax of entry Cc1ccc(COC(=O)N2CC[C@H](CNc3ncccn3)[C@H](F)C2)cc1 [CERC-301]
Response: 266

----------
# TEST SUMMARY: Plasma pharmacokinetics of single escalating doses in patients with symptomatic nOH associated with Parkinson's disease
# Format: in vivo, human
# PARTICULARS: human, plasma, oral; 12 mg single dose
MEASURED QUANTITY: Cmax (ng/mL)
Give the value, in units of ng/mL, as a plain number.

Query: Given the entry Cc1ccc(COC(=O)N2CC[C@H](CNc3ncccn3)[C@H](F)C2)cc1 , report its measured Cmax.
Response: 161

----------
# TEST SUMMARY: Plasma pharmacokinetics of single escalating doses in patients with symptomatic nOH associated with Parkinson's disease
# Assay type: in vivo, human
# PARTICULARS: human, plasma, oral; 20 mg single dose; 6-hour PK collection period; read-out: Area Under the Curve (AUC)
# Method: Subjects were dosed on five separate occasions, approximately 7-10 days apart, with one of four single escalating doses of CERC-301 or placebo and underwent an orthostatic challenge test to assess the safety, tolerability, effect on blood pressure, and PK. […] Blood sampling, processing, storage, and shipping instructions were provided in the Laboratory Manual. The plasma samples were analyzed via liquid chromatography tandem mass spectrometry (LC-MS/MS) following a validated method. […]
MEASURED QUANTITY: AUC

Query: AUC; subject: Cc1ccc(COC(=O)N2CC[C@H](CNc3ncccn3)[C@H](F)C2)cc1
Response: 1240 ng·h/mL

----------
# TEST SUMMARY: Plasma pharmacokinetics of single escalating doses in patients with symptomatic nOH associated with Parkinson's disease
# Type: in vivo, human
# PARTICULARS: human, plasma, oral; 16 mg single dose; 6-hour PK collection period; read-out: Area Under the Curve (AUC)
MEASURED QUANTITY: AUC

Query: Reported AUC for Cc1ccc(COC(=O)N2CC[C@H](CNc3ncccn3)[C@H](F)C2)cc1 : what is it?
Response: 954 ng·h/mL

----------
# TEST SUMMARY: Plasma pharmacokinetics of CERC-301, single and 7-day repeated dose, healthy subjects
# Type: in vivo, human
# PARTICULARS: human, plasma, oral, Day 1; 8 to 20 mg; read-out: Median tmax
MEASURED QUANTITY: Tmax

Query: Given Cc1ccc(COC(=O)N2CC[C@H](CNc3ncccn3)[C@H](F)C2)cc1 , state its recorded Tmax.
Response: 2 to 3 h

----------
# TEST SUMMARY: Plasma pharmacokinetics of CERC-301, single and 7-day repeated dose, healthy subjects
# Format: in vivo, human
# PARTICULARS: human, plasma, oral, young, intermediate age and elderly subgroups; Day 7; read-out: Average t1/2
MEASURED QUANTITY: half-life

Query: Given the entry Cc1ccc(COC(=O)N2CC[C@H](CNc3ncccn3)[C@H](F)C2)cc1 , report its measured half-life.
Response: 20 to 28 h
